test system: castrated male rats; assay: Efficacy test in castrated male rat (Hershberger assay); type: in vivo, SD (Sprague-Dawley) rat; details: castrated male SD rats, oral once a day for 14 days, 0.3 mg/kg
measurement kind: levator ani muscle weight % relative to intact control group (%)
One number for each entry, in %.

# count of solved cases: 2
{"smiles string": "COC(=O)Nc1ccc(OC[C@@H]2CN(c3ccc(C#N)c(C(F)(F)F)c3)[C@@H](C(F)(F)F)O2)cc1", "value observed": 18.8}
{"smiles string": "N#Cc1ccc(OC[C@@H]2CN(c3ccc(C#N)c(C(F)(F)F)c3)[C@@H](C(F)(F)F)O2)cn1", "value observed": 66.6}

For every record below, what is its levator ani muscle weight % relative to intact control group?
1. COC(=O)N1CCN(C(=O)[C@@H]2CN(c3ccc(C#N)c(C(F)(F)F)c3)[C@@H](C(F)(F)F)O2)CC1
2. N#Cc1ccc(OC[C@@H]2CN(c3ccc(C#N)c(C(F)(F)F)c3)[C@@H](C(F)(F)F)O2)cc1

Marked response:
[37.5, 7.2]

Data origin, for the record: patent US9809583B2
